molecular target: dN-SARM1 (Homo sapiens (Human), UniProt Q6SZW1)
Sequence (Q6SZW1 28-724): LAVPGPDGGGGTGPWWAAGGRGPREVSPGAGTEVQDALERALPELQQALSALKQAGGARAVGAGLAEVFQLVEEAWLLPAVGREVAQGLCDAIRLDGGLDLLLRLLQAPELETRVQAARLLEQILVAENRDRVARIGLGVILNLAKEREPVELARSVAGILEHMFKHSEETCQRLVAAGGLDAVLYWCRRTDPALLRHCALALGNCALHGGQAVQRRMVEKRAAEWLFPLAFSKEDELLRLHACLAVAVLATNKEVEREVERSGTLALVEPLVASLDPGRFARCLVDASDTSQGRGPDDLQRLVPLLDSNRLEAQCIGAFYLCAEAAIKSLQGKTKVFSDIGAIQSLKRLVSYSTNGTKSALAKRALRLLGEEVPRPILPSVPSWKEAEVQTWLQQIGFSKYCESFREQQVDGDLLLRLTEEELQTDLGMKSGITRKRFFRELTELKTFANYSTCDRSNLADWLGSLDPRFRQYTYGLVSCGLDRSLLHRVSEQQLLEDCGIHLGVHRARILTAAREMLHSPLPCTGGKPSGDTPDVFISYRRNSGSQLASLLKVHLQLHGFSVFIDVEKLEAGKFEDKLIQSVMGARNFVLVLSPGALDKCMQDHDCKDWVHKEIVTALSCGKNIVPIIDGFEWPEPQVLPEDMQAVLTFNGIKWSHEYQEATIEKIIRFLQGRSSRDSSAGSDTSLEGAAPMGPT
pIC50: −log10 of the molar value.
Documented pIC50 across a set of molecules
quantity: pIC50

1) O=c1sn(-c2ccccc2C(F)(F)F)c(=O)n1CC1CC1 [Compound 2]
> 6.00
2) N#Cc1c(Cl)cc(Cl)cc1Sc1cc(Cl)cc(Cl)c1O [Compound 36]
< 5.00
3) Cc1ccc(-n2sc(=O)n(Cc3ccc(F)cc3)c2=O)cc1 [Compound 6]
> 6.00
4) Oc1cc(Cl)ccc1Oc1ccc(Cl)cc1Cl [Compound 35]
< 5.00
5) Cn1c(=O)sn(-c2cccc3ccccc23)c1=O [Compound 3]
> 6.00

---

Reported Inhibition rate of enzyme activity by item:
biological target: dN-SARM1 (Homo sapiens (Human), UniProt Q6SZW1); test: In vitro biochemical test of inhibiting SARM1 enzyme activity (% inhibition rate), PC6 fluorescence method; conditions: 50 μM compound; 0.05 μg/ml dN-SARM1; 50 μM NAD, 50 μM PC6, 50 μM NMN activator; 30 min room temperature
quantity: Inhibition rate of enzyme activity

1. N#Cc1ccc(Cl)cc1Cc1cc(Cl)ccc1C#N
93.7%
2. O=c1sn(-c2cccc3ccccc23)c(=O)n1Cc1ccccc1
98.6%
3. N#Cc1c(Cl)cc(Cl)cc1Sc1cc(Cl)cc(Cl)c1O
98.5%
4. O=C(CCCCCCNC(=O)c1cnc(N(c2ccccc2)c2ccccc2)nc1)NO
85.3%
5. O=C(C=Cc1cccc(S(=O)(=O)Nc2ccccc2)c1)NO
67.4%
6. O=C(CCCCCCC(=O)Nc1ccccc1)NO
75.6%
7. O=C(/C=C/c1ccc(CNCCc2c(O)[nH]c3ccccc23)cc1)NO
67.3%
8. Oc1cc(Cl)ccc1Oc1ccc(Cl)cc1Cl
102%
9. CCN(CC)C(=S)SSC(=S)N(CC)CC
101%
